Target: mutEGFR (D770_N771insNPG, T790)
Sequence (P00533 with tags, fused parts or gaps INS770NPG limits assumed): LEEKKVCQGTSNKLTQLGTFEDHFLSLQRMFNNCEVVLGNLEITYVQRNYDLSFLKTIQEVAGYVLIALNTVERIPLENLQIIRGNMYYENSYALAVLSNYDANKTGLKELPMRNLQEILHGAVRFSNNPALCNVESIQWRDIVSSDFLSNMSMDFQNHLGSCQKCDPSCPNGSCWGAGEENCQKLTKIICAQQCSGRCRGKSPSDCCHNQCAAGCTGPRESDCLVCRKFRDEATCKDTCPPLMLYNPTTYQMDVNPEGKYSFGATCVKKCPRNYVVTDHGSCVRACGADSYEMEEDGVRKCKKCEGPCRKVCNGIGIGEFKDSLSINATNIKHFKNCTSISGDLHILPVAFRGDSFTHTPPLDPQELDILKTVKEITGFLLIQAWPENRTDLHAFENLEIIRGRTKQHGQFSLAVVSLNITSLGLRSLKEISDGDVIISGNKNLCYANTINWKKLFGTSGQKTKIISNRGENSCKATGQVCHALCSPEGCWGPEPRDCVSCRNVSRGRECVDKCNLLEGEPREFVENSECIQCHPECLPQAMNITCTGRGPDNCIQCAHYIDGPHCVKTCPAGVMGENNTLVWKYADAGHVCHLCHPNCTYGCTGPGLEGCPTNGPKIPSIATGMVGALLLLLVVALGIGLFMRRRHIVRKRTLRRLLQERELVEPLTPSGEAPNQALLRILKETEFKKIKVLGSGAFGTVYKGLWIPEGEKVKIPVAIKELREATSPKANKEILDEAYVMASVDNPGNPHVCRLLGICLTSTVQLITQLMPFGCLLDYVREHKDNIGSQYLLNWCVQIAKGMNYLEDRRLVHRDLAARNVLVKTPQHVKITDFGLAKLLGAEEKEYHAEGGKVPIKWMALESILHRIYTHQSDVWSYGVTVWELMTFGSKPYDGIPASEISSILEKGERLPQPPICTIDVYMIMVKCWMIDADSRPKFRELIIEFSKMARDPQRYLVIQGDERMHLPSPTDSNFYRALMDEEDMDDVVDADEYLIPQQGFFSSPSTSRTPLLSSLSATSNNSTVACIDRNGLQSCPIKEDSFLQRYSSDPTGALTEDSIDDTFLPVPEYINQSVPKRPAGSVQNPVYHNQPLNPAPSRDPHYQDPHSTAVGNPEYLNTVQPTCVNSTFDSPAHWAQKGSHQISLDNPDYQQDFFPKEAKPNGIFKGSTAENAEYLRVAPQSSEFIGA
Test: mutEGFR (D770_N771insNPG, T790) kinase assay
Lab note: anything with IC50 below 100 nM is marked YES; values at 100 nM or higher are marked NO.

# example entries with known answers
Query string: Does the reported IC50 of C=CS(=O)(=O)N1CCC[C@H]1COc1cnccc1-c1[nH]c2cccnc2c1-c1cc(C(F)(F)F)ccc1F stay below 100 nM?
Result string: YES

Query string: Thanks! And C=CC(=O)N1CCC[C@H]1COc1cnccc1-c1[nH]c2cccnc2c1-c1ccc2ccccc2c1 ?
Result string: YES

Query string: Thanks! And C=CC(=O)N(C)CCOc1cnccc1-c1[nH]c2cccnc2c1-c1cc(CC)ccc1F ?
Result string: NO

Query string: Thanks! And C=CC(=O)N(C)CCOc1cnccc1-c1[nH]c2cccnc2c1-c1cc(Cl)cc(Cl)c1 ?
Result string: NO

Query string: Thanks! And C=CC(=O)N1CCC[C@H]1COc1cnccc1-c1[nH]c2cccnc2c1-c1ccc2cccnc2c1 ?
Result string: YES

Continuing:
Query string: Does the reported IC50 of C=CC(=O)N(C)C[C@H](C)Oc1cnccc1-c1[nH]c2cccnc2c1-c1ccccc1 (stereo in doubt) stay below 100 nM?
Result string: NO

Query string: Thanks! And C=CC(=O)N1CCC(Oc2cnccc2-c2[nH]c3cccnc3c2-c2cc(C)ccc2F)C1 (racemic) ?
Result string: NO

* * *

Can you tell me IC50 for the items I'm about to list?
Biological target: mutEGFR (D770_N771insSVD) (Homo sapiens, UniProt P00533, INS767SVD)
Sequence (P00533 with tags, fused parts or gaps INS767SVD limits assumed): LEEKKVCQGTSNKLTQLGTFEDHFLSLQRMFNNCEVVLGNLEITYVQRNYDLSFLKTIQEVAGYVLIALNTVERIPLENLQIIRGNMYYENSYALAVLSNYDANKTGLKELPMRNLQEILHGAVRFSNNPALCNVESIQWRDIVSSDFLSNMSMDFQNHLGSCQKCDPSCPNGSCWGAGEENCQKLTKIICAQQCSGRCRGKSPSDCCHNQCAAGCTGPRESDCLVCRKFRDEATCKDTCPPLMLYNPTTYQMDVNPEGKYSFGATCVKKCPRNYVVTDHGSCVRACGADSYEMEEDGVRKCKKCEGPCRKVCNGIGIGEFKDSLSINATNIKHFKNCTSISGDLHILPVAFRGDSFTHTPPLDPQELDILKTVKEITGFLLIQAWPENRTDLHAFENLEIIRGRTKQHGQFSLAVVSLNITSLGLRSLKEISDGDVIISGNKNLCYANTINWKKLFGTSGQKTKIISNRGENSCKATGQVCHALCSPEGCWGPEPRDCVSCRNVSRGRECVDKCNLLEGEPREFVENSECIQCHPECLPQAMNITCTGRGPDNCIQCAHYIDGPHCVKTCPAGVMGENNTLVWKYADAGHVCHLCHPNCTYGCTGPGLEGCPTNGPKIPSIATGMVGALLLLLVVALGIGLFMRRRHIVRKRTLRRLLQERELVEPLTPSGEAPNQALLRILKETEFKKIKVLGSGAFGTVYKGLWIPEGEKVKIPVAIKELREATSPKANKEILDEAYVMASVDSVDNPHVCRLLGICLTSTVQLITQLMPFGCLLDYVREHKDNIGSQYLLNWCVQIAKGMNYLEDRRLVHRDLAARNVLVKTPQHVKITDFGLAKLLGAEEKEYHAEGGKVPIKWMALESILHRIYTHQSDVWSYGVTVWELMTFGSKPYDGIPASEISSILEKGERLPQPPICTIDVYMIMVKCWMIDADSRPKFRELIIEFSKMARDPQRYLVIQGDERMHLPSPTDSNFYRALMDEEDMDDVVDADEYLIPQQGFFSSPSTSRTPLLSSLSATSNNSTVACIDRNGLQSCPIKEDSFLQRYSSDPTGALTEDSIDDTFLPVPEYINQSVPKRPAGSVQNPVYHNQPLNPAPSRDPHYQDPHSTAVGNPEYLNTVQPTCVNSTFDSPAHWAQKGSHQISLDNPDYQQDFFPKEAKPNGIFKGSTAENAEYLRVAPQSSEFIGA
Experiment: Exon20-mutant-EGFR (D770_N771insSVD) TR-FRET kinase assay
Conditions: 2 mM ATP, 15 min preincubation
From the text: Inhibitory activity of compounds of the present invention against an Epidermal Growth Factor Receptor (EGFR) with an insertion of the amino acids sequence SVD between D770 and N771 (SEQ ID No. 5) was quantified employing the TR-FRET based kinase activity assay as described in the following paragraphs. […]
Give bare numbers, in nM.

Query string: Value lookup for IC50; key = C=CC(=O)N1CCC[C@H]1COc1cncc(F)c1-c1[nH]c2cccnc2c1-c1ccccc1 [Example 109]
Result string: 0.573

Query string: Thanks! And C=CS(=O)(=O)N(C)CCOc1cnccc1-c1[nH]c2cccnc2c1-c1cccc(OC)c1 [Example 69] ?
Result string: 3.65

Query string: Thanks! And C=CC(=O)N(C)CCOc1cnccc1-c1[nH]c2cccnc2c1-c1cc(C)cc(F)c1 [Example 50] ?
Result string: 63.7

Query string: Thanks! And C=CC(=O)N1CCC[C@H]1COc1cnccc1-c1[nH]c2cccnc2c1-c1ccc(F)c(OC(F)F)c1 [Example 103] ?
Result string: 3.56

Query string: Thanks! And C=CS(=O)(=O)N(C)CCOc1cnccc1-c1[nH]c2cccnc2c1-c1cc(Cl)cc(Cl)c1 [Example 75] ?
Result string: 45

Query string: Thanks! And Cn1ccc(C#CC(=O)N2CCC[C@H]2COc2cnccc2-c2[nH]c3cccnc3c2-c2ccccc2)n1 [Example 95] ?
Result string: 71.2

State recorded IC50 for all listed compounds.
1. C=CC(=O)N1CCC[C@H]1COc1cnccc1-c1[nH]c2cccnc2c1-c1cc(Cl)ccc1F [Example 42]
2. CN(C)C/C=C/C(=O)N1CCC[C@H]1COc1cnccc1-c1[nH]c2cccnc2c1-c1ccc(F)c(OC(F)(F)F)c1 [Example 107]
3. C=CS(=O)(=O)N(C)CCOc1cnccc1-c1[nH]c2cccnc2c1-c1cc(C)ccc1F [Example 64]
4. C=CC(=O)N(C)CCOc1cnccc1-c1[nH]c2cccnc2c1-c1cc(F)cc(F)c1 [Example 52]

Result string:
1.11
94.5
1.47
77.1

State recorded IC50 for all listed compounds.
1. C=CC(=O)N1CCC[C@H]1COc1cnccc1-c1[nH]c2cccnc2c1-c1ccc2ccccc2c1 [Example 80]
2. C=CS(=O)(=O)N(C)CCOc1cnccc1-c1[nH]c2cccnc2c1-c1ccccc1CC [Example 72]
3. C=CS(=O)(=O)N(C)CCOc1cnccc1-c1[nH]c2cccnc2c1-c1cccc(CC)c1 [Example 63]
4. C=CC(=O)N(C)CCOc1cnccc1-c1[nH]c2cccnc2c1-c1ccc2cccnc2c1 [Example 18]
5. C=CS(=O)(=O)N1CCC[C@H]1COc1cnccc1-c1[nH]c2cccnc2c1-c1ccc(F)c(OC(F)(F)F)c1 [Example 108]
6. C=CC(=O)N1CCC[C@H]1COc1cnccc1-c1[nH]c2cccnc2c1-c1ccccc1F [Example 89]
7. C=CC(=O)N1CCC[C@H]1COc1cncc(F)c1-c1[nH]c2cccnc2c1-c1cc(Cl)ccc1F [Example 129]
8. C=CC(=O)N(C)CCOc1cnccc1-c1[nH]c2cccnc2c1-c1ccc(Cl)c(C(=O)OC)c1 [Example 13]

Result string:
1: 0.583; 2: 5.82; 3: 1.44; 4: 549; 5: 0.557; 6: 0.547; 7: 1; 8: 720

State recorded IC50 for all listed compounds.
1. C=CC(=O)N(C)CCOc1cnccc1-c1[nH]c2cccnc2c1-c1cc(F)ccc1F [Example 46]
2. C=CC(=O)N1CCC[C@H]1COc1cnccc1-c1[nH]c2cccnc2c1-c1cc(C)ccc1F [Example 77]
3. C=CS(=O)(=O)N(C)CCOc1cnccc1-c1[nH]c2cccnc2c1-c1cccc(C(F)(F)F)c1 [Example 66]

Result string:
1. 27.3
2. 0.853
3. 2.61

State recorded IC50 for all listed compounds.
1. C=CC(=O)N1CC[C@@H]1COc1cnccc1-c1[nH]c2cccnc2c1-c1ccccc1 (single isomer, unassigned) [Example 140]
2. C=CC(=O)N(C)CCOc1cnccc1-c1[nH]c2cccnc2c1-c1ccc(F)c(C)c1 [Example 12]
3. CC#CC(=O)N1CCC[C@H]1COc1cnccc1-c1[nH]c2cccnc2c1-c1ccccc1 [Example 94]
4. C=CC(=O)N1C=C(F)C[C@H]1COc1cnccc1-c1[nH]c2cccnc2c1-c1ccccc1 [Example 113]
5. C=CC(=O)N1CCC[C@H]1COc1cnccc1-c1[nH]c2cccnc2c1-c1cccc(C#N)c1 [Example 87]
6. CN(C)C/C=C/C(=O)N1CCOCC1COc1cnccc1-c1[nH]c2cccnc2c1-c1ccccc1 (stereo not shown) [Example 150]
7. C=CC(=O)N1CCC[C@H]1COc1cnccc1-c1[nH]c2c(C)ccnc2c1-c1ccccc1 [Example 135]

Result string:
1. 0.3
2. 8.68
3. 365
4. 0.114
5. 15.2
6. 4660
7. 0.589

State recorded IC50 for all listed compounds.
1. C=CS(=O)(=O)N(C)CCOc1cnccc1-c1[nH]c2cccnc2c1-c1cccc(C(C)C)c1 [Example 70]
2. C=CS(=O)(=O)N(C)CCOc1cnccc1-c1[nH]c2cccnc2c1-c1cc(C)cc(F)c1 [Example 65]
3. C=CC(=O)NCCOc1cnccc1-c1[nH]c2cc(F)cnc2c1-c1ccccc1 [Example 6]

Result string:
[5.33, 2.48, 3850]
